Measured IC50 of individual entries
# measured.target: IL-23R (Homo sapiens, UniProt Q5VWK5)
# Sequence (Q5VWK5 24-629): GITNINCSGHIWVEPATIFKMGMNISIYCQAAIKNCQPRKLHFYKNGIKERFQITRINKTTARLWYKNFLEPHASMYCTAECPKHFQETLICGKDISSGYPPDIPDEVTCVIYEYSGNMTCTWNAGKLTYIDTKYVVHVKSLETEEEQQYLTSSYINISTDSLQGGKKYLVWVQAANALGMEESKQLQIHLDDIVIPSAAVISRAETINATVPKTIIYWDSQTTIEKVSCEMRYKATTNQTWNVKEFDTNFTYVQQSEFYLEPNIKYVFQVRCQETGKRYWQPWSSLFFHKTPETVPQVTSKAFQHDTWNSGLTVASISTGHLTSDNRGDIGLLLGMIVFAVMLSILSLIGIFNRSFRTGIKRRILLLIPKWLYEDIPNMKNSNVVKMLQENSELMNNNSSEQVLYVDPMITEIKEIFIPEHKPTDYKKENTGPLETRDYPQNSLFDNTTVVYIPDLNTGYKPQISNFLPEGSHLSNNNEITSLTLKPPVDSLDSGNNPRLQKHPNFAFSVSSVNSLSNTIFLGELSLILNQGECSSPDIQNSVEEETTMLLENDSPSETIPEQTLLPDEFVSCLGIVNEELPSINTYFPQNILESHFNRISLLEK
# test.name: IL-23R reporter gene assay (HEK-blue IL23 reporter gene cell line, rhIL23 stimulation)
# reported.conditions: Inhibition of IL-23R, rhIL23 1 ng/mL, 24 hours
Positions of bridges follow the written chain, without caps; N, C: chain ends. Non-standard residues stand in square brackets, D forms with d. Residues, ends and D or L forms follow the SMILES beside them. Trp(7-Me) = Cc1cccc2c(C[C@H](N)C(=O)O)c[nH]c12; 2Nal = N[C@@H](Cc1ccc2ccccc2c1)C(=O)O; AEF = NCCOc1ccc(C[C@H](N)C(=O)O)cc1; 3Pal = N[C@@H](Cc1cccnc1)C(=O)O; Cit = NC(=O)NCCC[C@H](N)C(=O)O; Pen = CC(C)(S)[C@H](N)C(=O)O; Thp = NC1(C(=O)O)CCOCC1; Sar = CNCC(=O)O

>  <compound>
CC(=O)N[C@@H]1C(=O)N[C@@H](Cc2c[nH]cn2)C(=O)N[C@@H]([C@@H](C)O)C(=O)N[C@@H](Cc2c[nH]c3c(C)cccc23)C(=O)N[C@@H](CCCNC(N)=O)C(=O)N[C@H](C(=O)N[C@@H](Cc2ccc(OCCN)cc2)C(=O)N[C@@H](Cc2ccc3ccccc3c2)C(=O)NC2(C(=O)N[C@@H](CCC(=O)O)C(=O)N[C@@H](CC(N)=O)C(=O)N[C@@H](Cc3cccnc3)C(=O)N(C)CC(N)=O)CCOCC2)C(C)(C)SSC1(C)C [Compound 2] (Ac-[Pen]HT[Trp(7-Me)][Cit][Pen][AEF][2Nal][Thp]EN[3Pal][Sar]-NH2; disulfide 1-6)

>  <measured.target>
IL-23R (Homo sapiens, UniProt Q5VWK5)

>  <IC50>
1.21 nM

$$$$
>  <compound>
CC(=O)NCCCC[C@@H]1NC(=O)[C@H](Cc2c[nH]c3c(C)cccc23)NC(=O)[C@H]([C@@H](C)O)NC(=O)[C@H](CC(N)=O)NC(=O)[C@@H](NC(C)=O)C(C)(C)SSC(C)(C)[C@@H](C(=O)N[C@@H](Cc2ccc(OCCN)cc2)C(=O)N[C@@H](Cc2ccc3ccccc3c2)C(=O)NC2(C(=O)N[C@@H](CCC(=O)O)C(=O)N[C@@H](CC(N)=O)C(=O)N[C@@H](Cc3cccnc3)C(=O)N(C)CC(N)=O)CCS(=O)(=O)CC2)NC1=O

>  <measured.target>
IL-23R (Homo sapiens, UniProt Q5VWK5)

>  <IC50>
2.56 nM

$$$$
>  <compound>
CC(=O)N[C@@H]1C(=O)N[C@@H](Cc2c[nH]cn2)C(=O)N[C@@H]([C@@H](C)O)C(=O)N[C@@H](Cc2c[nH]c3c(C)cccc23)C(=O)N[C@@H](CCC(N)=O)C(=O)N[C@H](C(=O)N[C@@H](Cc2ccc(OCCN)cc2)C(=O)N[C@@H](Cc2ccc3ccccc3c2)C(=O)NC2(C(=O)N[C@@H](CCC(=O)O)C(=O)N[C@@H](CC(N)=O)C(=O)N[C@@H](Cc3cccnc3)C(=O)N(C)CC(N)=O)CCOCC2)C(C)(C)SSC1(C)C [Compound 1] (Ac-[Pen]HT[Trp(7-Me)]Q[Pen][AEF][2Nal][Thp]EN[3Pal][Sar]-NH2; disulfide 1-6)

>  <measured.target>
IL-23R (Homo sapiens, UniProt Q5VWK5)

>  <IC50>
1.1 nM

$$$$

Values from patent EP4729529A1
